stated conditions: 333.15 K; 20000 kPa; Liquid
measurement name: mass density (kg/m3)
Record the value in kg/m3, omitting the unit from your answer.

Previously resolved entries follow.
* CCCCCCCCCCCCCC[P+](CCCCCC)(CCCCCC)CCCCCC.N#C[N-]C#N [tetradecyl(trihexyl)phosphonium dicyanamide] | 889.1
* CCCCCCCCCCCCCC[P+](CCCCCC)(CCCCCC)CCCCCC.[Cl-] [trihexyl(tetradecyl)phosphonium chloride] | 879.9
* CCCCCCCCCCCCCC[P+](CCCCCC)(CCCCCC)CCCCCC.CS(=O)(=O)[O-] [trihexyltetradecylphosphonium methanesulfonate] | 919.6
* CCCCCCCCCCCCCC[P+](CCCCCC)(CCCCCC)CCCCCC.O=S(=O)([N-]S(=O)(=O)C(F)(F)F)C(F)(F)F | 1054.3

Alright, here's another compound for you.
Looking up CCCCCCCCCCCCCC[P+](CCCCCC)(CCCCCC)CCCCCC.[Br-] [tetradecyltrihexylphosphonium bromide] , I found its mass density recorded as 943.9
